target: T1, human PD-L1 (human, UniProt Q9NZQ7 19-290); experiment: flow cytometry; MFI on CHO/PD-L1 over MFI on Jurkat (CD28), 33.3 nM
T1 construct: whole, on cells; also called huPD-L1
T1 sequence (Q9NZQ7 19-290): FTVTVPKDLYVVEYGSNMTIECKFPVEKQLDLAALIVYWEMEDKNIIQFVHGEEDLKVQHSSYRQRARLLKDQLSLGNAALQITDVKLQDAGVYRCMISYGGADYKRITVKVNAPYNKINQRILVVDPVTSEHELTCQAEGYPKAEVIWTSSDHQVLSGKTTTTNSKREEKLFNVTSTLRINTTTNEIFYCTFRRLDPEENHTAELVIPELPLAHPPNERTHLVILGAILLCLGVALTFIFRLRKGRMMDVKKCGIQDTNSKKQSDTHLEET
readout type: Ratio of PDL1:CD28 (ratio)
API: value field is a number in ratio; no unit string.

In: Give me measured Ratio of PDL1:CD28, please, for this binder: Q33R/M47V/T62N/A71G CD80 IgV-Fc (Fc fusion, not shown: a dimerising Fc or GST) VIHVTKEVKEVATLSCGHNVSVEELAQTRIYWRKEKKMVLTMMSGDVNIWPEYKNRTIFDINNNLSIVILGLRPSDEGTYECVVLKYEKDAFKREHLAEVTLSVKAD
Out: 719

In: Give me measured Ratio of PDL1:CD28, please, for this binder: CD80 WT IgV-Fc (Fc fusion, not shown: a dimerising Fc or GST, also called WT CD80-IgV-Fc; wild-type CD80 IgV-Fc) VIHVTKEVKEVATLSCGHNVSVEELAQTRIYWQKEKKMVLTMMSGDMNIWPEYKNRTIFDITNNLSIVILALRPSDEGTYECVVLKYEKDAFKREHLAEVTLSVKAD
Out: 2

In: Give me measured Ratio of PDL1:CD28, please, for this binder: E24D/Q27R/E35D/T41S/M47V/L85Q CD80 IgV-Fc (Fc fusion, not shown: a dimerising Fc or GST) VIHVTKEVKEVATLSCGHNVSVEDLARTRIYWQKDKKMVLSMMSGDVNIWPEYKNRTIFDITNNLSIVILALRPSDEGTYECVVQKYEKDAFKREHLAEVTLSVKAD
Out: 44

In: Give me measured Ratio of PDL1:CD28, please, for this binder: E35D/M47L/V68M/A71G/L85Q/D90G CD80 IgV-Fc (Fc fusion, not shown: a dimerising Fc or GST) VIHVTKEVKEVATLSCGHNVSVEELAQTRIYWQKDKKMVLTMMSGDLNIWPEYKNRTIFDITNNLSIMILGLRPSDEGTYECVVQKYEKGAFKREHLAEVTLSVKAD
Out: 12

In: Give me measured Ratio of PDL1:CD28, please, for this binder: S15T/H18Y/E35D/M47V/T62A/N64S/A71G/L85Q/D90N CD80 IgV-Fc (Fc fusion, not shown: a dimerising Fc or GST) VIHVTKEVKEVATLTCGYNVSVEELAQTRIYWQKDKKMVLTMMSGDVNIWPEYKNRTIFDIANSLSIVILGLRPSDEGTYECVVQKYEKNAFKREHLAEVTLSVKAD
Out: 13

In: Give me measured Ratio of PDL1:CD28, please, for this binder: H18Y/V22A/E35D/T41S/M47V/T62N/A71G/A91G CD80 IgV-Fc (Fc fusion, not shown: a dimerising Fc or GST) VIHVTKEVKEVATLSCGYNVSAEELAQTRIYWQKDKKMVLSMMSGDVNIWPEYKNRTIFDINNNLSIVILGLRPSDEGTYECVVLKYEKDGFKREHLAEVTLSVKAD
Out: 5

In: Give me measured Ratio of PDL1:CD28, please, for this binder: E35D/D46E/M47L/V68M/L85Q/F92L CD80 IgV-Fc (Fc fusion, not shown: a dimerising Fc or GST) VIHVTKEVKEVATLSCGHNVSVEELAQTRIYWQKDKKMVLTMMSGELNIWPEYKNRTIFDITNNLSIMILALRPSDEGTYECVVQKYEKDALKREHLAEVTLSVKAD
Out: 863
